Values from patent US12708622B2

- Tested on: JW23.3 cells
- experimental-details: IncuCyte live cell proliferation assay (percent cell confluence)
- Type: cell-based, murine
- experimental-parameters: Mus musculus, 72 h, read-out: IC50 for inhibition of cell confluence
pIC50: −log10 of the molar value.
assay-readout: pIC50

>>> print(df.to_string())
                              line_notation  result_value
0  [2H]C([2H])([2H])NC(=O)c1nnc(NC(=O)C2CC2)cc1Nc1cccc(-c2ncn(C)n2)c1OC          5.17

* * *

- Test system: WU-356 cells
- experimental-details: IncuCyte live cell proliferation assay (percent cell confluence)
- Type: cell-based, human
- experimental-parameters: Homo sapiens, 72 h; WU-356 MPNST cell line; IncuCyte, 3 days; read-out: IC50 for inhibition of cell confluence
assay-readout: IC50 (nM)

>>> print(df.to_string())
                                   compound   test_system  assay_readout  result_value
0  O=C(NOC[C@H](O)CO)c1ccc(F)c(F)c1Nc1ccc(I)cc1F [mirdametinib]  WU-356 cells           IC50          1330
